Parameter: CTLA4 Fold change to WT CD80. Scope: all listed entries.
tested-system: huCTLA4 (Homo sapiens, UniProt P16410)
Sequence (P16410 36-223): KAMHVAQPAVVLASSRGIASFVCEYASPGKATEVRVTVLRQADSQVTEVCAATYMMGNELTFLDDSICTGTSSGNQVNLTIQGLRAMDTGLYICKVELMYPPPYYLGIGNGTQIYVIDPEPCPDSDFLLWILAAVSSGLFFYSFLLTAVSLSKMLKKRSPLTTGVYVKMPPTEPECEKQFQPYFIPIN
test-details: Flow binding to CHO cells stably expressing CTLA4
Parameters: huCTLA4 and huPD-L1, full-length mammalian surface expression constructs were generated; expressed in transfected cells; host or cells: CHO cells, lentiviral transduction, sorted to >98% purity
measurement-setup: Table E10; 33.3 nM; relative to CD80 WT IgV-Fc
value-type: CTLA4 Fold change to WT CD80

E35D/D46E (protein) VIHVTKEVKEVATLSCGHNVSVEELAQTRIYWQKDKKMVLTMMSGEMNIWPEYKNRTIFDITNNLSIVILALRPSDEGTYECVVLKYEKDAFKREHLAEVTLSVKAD :: 14.6
E35D/D46E/L85M (protein) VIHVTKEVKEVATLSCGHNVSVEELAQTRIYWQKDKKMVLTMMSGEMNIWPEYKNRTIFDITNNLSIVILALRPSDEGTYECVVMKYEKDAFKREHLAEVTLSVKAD :: 15.8
E35D/M43I/D46E/A71G/L85M (protein) VIHVTKEVKEVATLSCGHNVSVEELAQTRIYWQKDKKMVLTMISGEMNIWPEYKNRTIFDITNNLSIVILGLRPSDEGTYECVVMKYEKDAFKREHLAEVTLSVKAD :: 14.0
M43I/M47L/A71G (protein) VIHVTKEVKEVATLSCGHNVSVEELAQTRIYWQKEKKMVLTMISGDLNIWPEYKNRTIFDITNNLSIVILGLRPSDEGTYECVVLKYEKDAFKREHLAEVTLSVKAD :: 12.2
E35D/D46E/A91G (protein) VIHVTKEVKEVATLSCGHNVSVEELAQTRIYWQKDKKMVLTMMSGEMNIWPEYKNRTIFDITNNLSIVILALRPSDEGTYECVVLKYEKDGFKREHLAEVTLSVKAD :: 16.8

# credit: patent US20220177587A1
